Sourced from paper PMC3365510

assay: Intrinsic clearance in rat liver microsomes; type: in vitro ADME
Measurement Kind: CLint scaled

Recorded CLint scaled (molecule "COc1ccc(C#Cc2ccc(C(=O)N3CCC[C@@H](CO)C3)cc2)cc1" ): 240 mL/min/kg

* * *

test: Intrinsic clearance in human liver microsomes; assay type: in vitro ADME
Measurement Kind: CLint scaled (mL/min/kg)
Numeric only. Scale: mL/min/kg

Recorded CLint scaled (compound COc1ccc(C#Cc2ccc(C(=O)N3CCC[C@@H](CO)C3)cc2)cc1 [Compound 11] ): 572
